biological target: T1, HLA-B*44:05 (human); experiment: UV-ligand exchange, anti-b2m ELISA; peptide exchange yield grade
T1 construct: Peptide-receptive MHC class I monomer after UV cleavage of a UV-sensitive ligand
measurementType: peptide exchange yield

DEAVRDITW :: ≥ 75%
AERDLDVTI :: ≥ 75%
DESKYTWSW :: ≥ 75%

Recorded result, `GEYRCQTDL` , peptide exchange yield: ≥ 75%

Sample `QEVDISLHY` ; peptide exchange yield observed: ≥ 75%

Kindly note the recorded peptide exchange yield for `KENQDHSYSL` , which is ≥ 75%

Noted for `DETAAYKIM` : its peptide exchange yield reads 50 to 75%

get_value(item= `AQDTTYLWW` , readout=peptide exchange yield) returns ≥ 75%

Looking up `KEVDDTLLVNEL` , I see its peptide exchange yield listed as ≥ 75%
